- Target Desc: Adenosine receptor A3 (Homo sapiens, UniProt P0DMS8)
- Sequence (P0DMS8 whole entry): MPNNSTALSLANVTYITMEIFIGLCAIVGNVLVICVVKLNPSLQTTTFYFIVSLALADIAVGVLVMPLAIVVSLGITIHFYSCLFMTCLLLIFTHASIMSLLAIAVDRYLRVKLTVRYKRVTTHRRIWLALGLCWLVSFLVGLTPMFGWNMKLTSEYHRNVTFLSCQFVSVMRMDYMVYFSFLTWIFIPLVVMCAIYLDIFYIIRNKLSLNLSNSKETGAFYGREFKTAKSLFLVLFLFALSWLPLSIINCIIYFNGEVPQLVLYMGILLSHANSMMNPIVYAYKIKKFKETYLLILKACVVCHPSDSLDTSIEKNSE
- Assay Text: Displacement of [125I]I-AB-MECA from human recombinant adenosine A3 receptor expressed in CHO cells by scintillation counting
For each record, write down the corresponding pKi.
By convention, pKi is the negative base-10 log of a molar concentration.

Exam item: Supply measured pKi of Cn1cc2c(n1)c(N)nc1c(OCc3ccccc3)cccc12 in your reply.
Marked response: 6.30

Exam item: Supply measured pKi of Cn1cc2c(n1)c(=O)[nH]c1c(OCc3ccccc3)cccc12 in your reply.
Marked response: 6.22

----------
For each record, write down the corresponding Ki.
- Target Desc: Adenosine receptor A1 (Homo sapiens)
- Sequence (P30542 whole entry): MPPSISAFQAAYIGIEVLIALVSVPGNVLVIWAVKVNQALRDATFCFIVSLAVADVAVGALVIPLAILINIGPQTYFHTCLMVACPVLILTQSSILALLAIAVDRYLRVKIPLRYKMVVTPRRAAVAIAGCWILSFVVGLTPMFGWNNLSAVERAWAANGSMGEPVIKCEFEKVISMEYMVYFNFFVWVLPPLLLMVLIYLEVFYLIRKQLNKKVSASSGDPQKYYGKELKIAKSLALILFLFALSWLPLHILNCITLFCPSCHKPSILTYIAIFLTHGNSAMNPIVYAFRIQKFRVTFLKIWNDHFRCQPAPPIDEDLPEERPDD
- Assay Text: Displacement of [3H]DPCPX from human recombinant adenosine A1 receptor expressed in CHO cell membranes by scintillation counting
// note: answer is a bare numeric in nM

Exam item: Supply measured Ki of Nc1nc2c(OCc3ccccc3)cccc2c2cn(-c3ccccc3)nc12 in your reply.
Marked response: 140

Exam item: Supply measured Ki of Nc1nc2c(O)cccc2c2cn(-c3ccccc3)nc12 in your reply.
Marked response: 100

Exam item: Supply measured Ki of Nc1nc2c(NCc3ccccc3)cccc2c2cn(-c3ccccc3)nc12 in your reply.
Marked response: 455

Exam item: Supply measured Ki of Cn1cc2c(n1)c(N)nc1c(OCc3ccccc3)cccc12 in your reply.
Marked response: 970

Exam item: Supply measured Ki of Nc1nc2c(Br)cccc2c2cn(-c3ccccc3)nc12 in your reply.
Marked response: 300

----------
- Target Desc: UniProt P29275
- Sequence (P29275 whole entry): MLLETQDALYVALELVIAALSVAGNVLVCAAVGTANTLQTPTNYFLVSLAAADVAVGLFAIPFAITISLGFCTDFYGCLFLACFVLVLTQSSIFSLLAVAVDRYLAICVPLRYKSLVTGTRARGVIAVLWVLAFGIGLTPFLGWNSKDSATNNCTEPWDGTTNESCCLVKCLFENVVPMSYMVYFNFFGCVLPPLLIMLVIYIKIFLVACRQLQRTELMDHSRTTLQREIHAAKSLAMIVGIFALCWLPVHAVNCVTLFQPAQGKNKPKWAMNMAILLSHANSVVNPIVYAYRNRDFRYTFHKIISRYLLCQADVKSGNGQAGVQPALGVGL
- Assay Text: Antagonist activity at human recombinant adenosine A2B receptor expressed in CHO cells assessed as inhibition of NECA-induced cAMP levels at 1 uM
- Assay type: functional, cell-based
For each record, write down the corresponding inhibition.
// note: answer is a bare numeric in %

Exam item: Give the observed inhibition of Nc1nc2c(O)cccc2c2cn(-c3ccccc3)nc12 for UniProt P29275.
Marked response: 4

Exam item: Give the observed inhibition of Cn1cc2c(n1)c(N)nc1ccccc12 for UniProt P29275.
Marked response: 5

Exam item: Give the observed inhibition of Nc1nc2c(OCCc3ccccc3)cccc2c2cn(-c3ccccc3)nc12 for UniProt P29275.
Marked response: 5

Exam item: Give the observed inhibition of Nc1cccc2c1[nH]c(=O)c1nn(-c3ccccc3)cc12 for UniProt P29275.
Marked response: 5

Exam item: Give the observed inhibition of Cn1cc2c(n1)c(=O)[nH]c1ccccc12 for UniProt P29275.
Marked response: 2

Exam item: Give the observed inhibition of O=C(Nc1cccc2c1[nH]c(=O)c1nn(-c3ccccc3)cc12)OCc1ccccc1 for UniProt P29275.
Marked response: 5

Exam item: Give the observed inhibition of Nc1nc2c(NCc3ccccc3)cccc2c2cn(-c3ccccc3)nc12 for UniProt P29275.
Marked response: 3

Exam item: Give the observed inhibition of Cn1cc2c(n1)c(N)nc1c(OCc3ccccc3)cccc12 for UniProt P29275.
Marked response: 4

Exam item: Give the observed inhibition of O=c1[nH]c2c(Br)cccc2c2cn(-c3ccccc3)nc12 for UniProt P29275.
Marked response: 5

Exam item: Give the observed inhibition of Cn1cc2c(n1)c(=O)[nH]c1c(OCc3ccccc3)cccc12 for UniProt P29275.
Marked response: 3

Exam item: Give the observed inhibition of O=c1[nH]c2c(OC(c3ccccc3)c3ccccc3)cccc2c2cn(-c3ccccc3)nc12 for UniProt P29275.
Marked response: 7

----------
- Target Desc: Adenosine receptor A2a (Homo sapiens, UniProt P29274)
- Sequence (P29274 whole entry): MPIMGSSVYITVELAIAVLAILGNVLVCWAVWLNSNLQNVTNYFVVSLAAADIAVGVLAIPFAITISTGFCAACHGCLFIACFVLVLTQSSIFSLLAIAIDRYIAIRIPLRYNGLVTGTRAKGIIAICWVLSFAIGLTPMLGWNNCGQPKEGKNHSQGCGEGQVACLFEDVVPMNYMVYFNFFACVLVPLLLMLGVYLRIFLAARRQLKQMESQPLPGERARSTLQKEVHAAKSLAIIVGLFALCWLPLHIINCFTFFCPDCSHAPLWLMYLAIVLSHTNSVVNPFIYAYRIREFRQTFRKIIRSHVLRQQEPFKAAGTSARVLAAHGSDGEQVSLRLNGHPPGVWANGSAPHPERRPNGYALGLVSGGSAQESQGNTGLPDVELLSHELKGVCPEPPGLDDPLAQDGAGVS
- Assay Text: Displacement of [3H]ZM241385 from human recombinant adenosine A2A receptor expressed in CHO cell membranes at 1 uM by scintillation counting
Endpoint: inhibition (%)
// note: answer is a bare numeric in %

Exam item: Supply measured inhibition of Nc1nc2c(OCc3ccccc3)cccc2c2cn(-c3ccccc3)nc12 in your reply.
Marked response: 16

Exam item: Supply measured inhibition of O=c1[nH]c2c(OC(c3ccccc3)c3ccccc3)cccc2c2cn(-c3ccccc3)nc12 in your reply.
Marked response: 1

Exam item: Supply measured inhibition of O=C(Nc1cccc2c1[nH]c(=O)c1nn(-c3ccccc3)cc12)OCc1ccccc1 in your reply.
Marked response: 1

Exam item: Supply measured inhibition of Cn1cc2c(n1)c(N)nc1ccccc12 in your reply.
Marked response: 26
